Data provenance is patent US20240180900A1.

# Procedure Summary: preliminary PK in mCRPC participants (Phase 1/2)
# Assay type: in vivo, human
# Test Context: male, human, plasma, oral, 100 mg, 100 mg QD (N=6), Cycle 1 Day 21; read-out: mean steady-state AUC0-24
Test Readout: AUC(0-t)

Measured AUC(0-t) of COc1cc(O[C@H]2C(C)(C)[C@H](NC(=O)c3ccc(N4CCC(CN5CCN(c6ccc(C(=O)N[C@H]7CCC(=O)NC7=O)c(F)c6)CC5)CC4)cc3)C2(C)C)ccc1C#N : 4610 ng·h/mL

###

# Procedure Summary: food/PPI effect on single-dose PK in healthy volunteers (phase 1)
# Assay type: in vivo, human
# Test Context: male, human, plasma, oral, 300 mg, 300 mg with esomeprazole, fed; read-out: AUClast, Geometric LS Mean
Test Readout: AUC(0-t) (ng·h/mL)
Dear colleague, please return just the value in ng·h/mL, with no unit written.

Measured AUC(0-t) of COc1cc(O[C@H]2C(C)(C)[C@H](NC(=O)c3ccc(N4CCC(CN5CCN(c6ccc(C(=O)N[C@H]7CCC(=O)NC7=O)c(F)c6)CC5)CC4)cc3)C2(C)C)ccc1C#N [Compound A] : 9370

###

# Procedure Summary: food/PPI effect on single-dose PK in healthy volunteers (phase 1)
# Type: in vivo, human
# Test Context: male, human, plasma, oral, 40 mg Esomeprazole + 300 mg; read-out: AUClast, Geometric Mean (Geometric CV %)
Test Readout: AUC(0-t) (ng·h/mL)
Dear colleague, please return just the value in ng·h/mL, with no unit written.

Measured AUC(0-t) of COc1cc(O[C@H]2C(C)(C)[C@H](NC(=O)c3ccc(N4CCC(CN5CCN(c6ccc(C(=O)N[C@H]7CCC(=O)NC7=O)c(F)c6)CC5)CC4)cc3)C2(C)C)ccc1C#N [Compound A] : 9370

###

# Procedure Summary: preliminary PK in mCRPC participants (Phase 1/2)
# Assay type: in vivo, human
# Test Context: male, human, plasma, oral; QD dosing, mCRPC participants; read-out: effective mean T1/2
Test Readout: half-life

Measured half-life of COc1cc(O[C@H]2C(C)(C)[C@H](NC(=O)c3ccc(N4CCC(CN5CCN(c6ccc(C(=O)N[C@H]7CCC(=O)NC7=O)c(F)c6)CC5)CC4)cc3)C2(C)C)ccc1C#N : 83 to 111 h

###

# Procedure Summary: preliminary PK in mCRPC participants (Phase 1/2)
# Format: in vivo, human
# Test Context: male, human, plasma, oral, 320 mg, 320 mg QD, Mean (CV %); read-out: AUC0-24 Day 1
# Description: A chiral bioanalytical method by LC-MS/MS has been developed to characterize the PK of Compound A. Pharmacokinetic analyses were performed using noncompartmental analysis methods. Mean steady state peak/trough ratio is less than 2, which indicates minimal fluctuation in plasma concentrations once steady state is achieved. Steady state occurs within 3 weeks into treatment. An ongoing, open-label, Phase 1/2 study in male participants with mCRPC. […]
Test Readout: AUC(0-t) (ng·h/mL)
Dear colleague, please return just the value in ng·h/mL, with no unit written.

Measured AUC(0-t) of COc1cc(O[C@H]2C(C)(C)[C@H](NC(=O)c3ccc(N4CCC(CN5CCN(c6ccc(C(=O)N[C@H]7CCC(=O)NC7=O)c(F)c6)CC5)CC4)cc3)C2(C)C)ccc1C#N : 3990
